system: NCI-H2087; experiment: relative viability (nuclei count vs DMSO), 5 days (fraction); higher = more cells survive; settings: first compound 8 µM
Measured Endpoint: relative viability

>>> value("O=c1[nH]c2ccccc2n1C1CCN(CCCC(c2ccc(F)cc2)c2ccc(F)cc2)CC1 [Pimozide] + C[C@]1(O)C[C@@H](c2nc(-c3ccc4ccc(-c5ccccc5)nc4c3)c3c(N)nccn32)C1 [Linsitinib] (partner 1 µM)")
0.96
>>> value("O=c1[nH]c2ccccc2n1C1CCN(CCCC(c2ccc(F)cc2)c2ccc(F)cc2)CC1 [Pimozide] + COc1cccc2cc(-c3nc([C@H]4CC[C@H](C(=O)O)CC4)n4ncnc(N)c34)[nH]c12 [OSI-027] (partner 0.5 µM)")
0.377
>>> value("O=c1[nH]c2ccccc2n1C1CCN(CCCC(c2ccc(F)cc2)c2ccc(F)cc2)CC1 [Pimozide] + CCNC(=O)c1noc(-c2cc(C(C)C)c(O)cc2O)c1-c1ccc(CN2CCOCC2)cc1 [Luminespib] (partner 0.01 µM)")
0.228
>>> value("O=c1[nH]c2ccccc2n1C1CCN(CCCC(c2ccc(F)cc2)c2ccc(F)cc2)CC1 [Pimozide] + Nc1nc2[nH]cc(CCc3ccc(C(=O)N[C@@H](CCC(=O)O)C(=O)O)cc3)c2c(=O)[nH]1 [Pemetrexed] (partner 0.2 µM)")
0.642
>>> value("O=c1[nH]c2ccccc2n1C1CCN(CCCC(c2ccc(F)cc2)c2ccc(F)cc2)CC1 [Pimozide] + C[C@@H](Oc1cc(-c2cnn(C3CCNCC3)c2)cnc1N)c1c(Cl)ccc(F)c1Cl [Crizotinib] (partner 1 µM)")
0.889
>>> value("O=c1[nH]c2ccccc2n1C1CCN(CCCC(c2ccc(F)cc2)c2ccc(F)cc2)CC1 [Pimozide] + N=C(N)NC(=N)NCCc1ccccc1 [Phenformin] (partner 250 µM)")
0.393
>>> value("O=c1[nH]c2ccccc2n1C1CCN(CCCC(c2ccc(F)cc2)c2ccc(F)cc2)CC1 [Pimozide] + CC1(C)CCC(c2ccc(Cl)cc2)=C(CN2CCN(c3ccc(C(=O)NS(=O)(=O)c4ccc(N[C@H](CCN5CCOCC5)CSc5ccccc5)c(S(=O)(=O)C(F)(F)F)c4)cc3)CC2)C1 [Navitoclax] (partner 0.5 µM)")
0.931
>>> value("O=c1[nH]c2ccccc2n1C1CCN(CCCC(c2ccc(F)cc2)c2ccc(F)cc2)CC1 [Pimozide] + CS(=O)(=O)CCNCc1ccc(-c2ccc3ncnc(Nc4ccc(OCc5cccc(F)c5)c(Cl)c4)c3c2)o1 [Lapatinib] (partner 2 µM)")
0.847
>>> value("O=c1[nH]c2ccccc2n1C1CCN(CCCC(c2ccc(F)cc2)c2ccc(F)cc2)CC1 [Pimozide] + Cc1nc(NC(=O)N2CCC[C@H]2C(N)=O)sc1-c1ccnc(C(C)(C)C(F)(F)F)c1 [Alpelisib] (partner 2 µM)")
0.89
